All values here come from paper PMC8876525.

System: HepAD38 cells
assay-info: CCK-8 cytotoxicity assay in HepAD38 cells
Type: cell-based, Human

compound | Cytotoxicity in words
O=C(Nc1ccc(F)c(Cl)c1)C1CCCN(S(=O)(=O)c2c[nH]c(C(=O)N3CCCC3)c2)C1 (stereo not shown) | medium cytotoxicity
CC1Oc2ccc(S(=O)(=O)N3CCCC(C(=O)Nc4ccc(F)c(Cl)c4)C3)cc2NC1=O (stereo not shown) | medium cytotoxicity
Cc1cc2c(cc1S(=O)(=O)N1CCCC(C(=O)Nc3ccc(F)c(Cl)c3)C1)OCC(=O)N2 (stereo not shown) | medium cytotoxicity

* * *

System: HBV
assay-info: Secreted HBV DNA in HepAD38 culture supernatant (RT-qPCR)
Assay type: cell-based
applied-conditions: Hepatitis B virus, 144 h; HepAD38 cells, 6 days; read-out: EC50 (secreted HBV DNA)
parameter: pEC50
Bear in mind: pEC50 is minus log10 of a mol/L concentration; give just that figure.

Examples with answers:
compound | target-system | pEC50
Cc1nc(-c2csc(S(=O)(=O)N3CCCC(C(=O)Nc4ccc(F)c(Cl)c4)C3)c2)no1 (stereo not drawn) [Compound C-41] | HBV | 7.21
O=C(CSc1nnc(-c2cccs2)n1CCc1ccccc1)Nc1ccc(F)cc1 [Compound C-7] | HBV | 5.74

Let's switch to this compound now.
Q) For HBV, provide pEC50 of O=C(CSc1nnc2ccc(C(=O)Nc3cccc(F)c3)cn12)Nc1ccc(F)c(F)c1 [Compound C-25] please.
A) 6.54
